Reference source: paper PMC10140157

- subject-of-test: VtrA–VtrC periplasmic domain complex (heterodimer) (Vibrio parahaemolyticus, UniProt Q87GI3+Q87GI4, Q87GI3:Y151A)
- Construct: gene VPA1333
- protocol-text: biochemical
observable: Kd (nM)
Record the value in nM, omitting the unit from your answer.

{"molecule": "C[C@H](CCC(=O)NCCS(=O)(=O)O)[C@H]1CC[C@H]2[C@@H]3CC[C@@H]4C[C@H](O)CC[C@]4(C)[C@H]3C[C@H](O)[C@]12C [TDC, taurodeoxycholate]", "Kd, nM": 2500}

For C[C@H](CCC(=O)O)[C@H]1CC[C@H]2[C@@H]3[C@H](O)C[C@@H]4C[C@H](O)CC[C@]4(C)[C@H]3CC[C@]12C [CDC, chenodeoxycholate] the molecule record lists Kd as 2280
